System: Danio rerio larvae (5 dpf)
testDetails: difference in habituation to acoustic stimuli vs DMSO (percentage points); higher = more habituation than DMSO
conditionInfo: 10 µM; exposure time 6 h
Counter-ions that a name gives are not always drawn.
The entries below come with measured difference in habituation to acoustic stimuli values attached.
assayMetric: difference in habituation to acoustic stimuli

>>> reportedmeasurement("NC(=O)[C@@H]1CC[C@@H]2CN1C(=O)N2OS(=O)(=O)O [Avibactam (sodium salt)]")
4.75
>>> reportedmeasurement("CN(C)CCOc1ccc(/C(=C(/CCCl)c2ccccc2)c2ccccc2)cc1 [Toremifene (citrate)]")
-7.15
>>> reportedmeasurement("COc1cc2/c(=N/c3ccc(Br)cc3F)nc[nH]c2cc1OCC1CCN(C)CC1")
5.41
>>> reportedmeasurement("C=CC(N)CCC(=O)O (configuration not stated)")
1.13
>>> reportedmeasurement("CC[C@H](C)C(=O)O[C@H]1C[C@H](O)C=C2C=C[C@H](C)[C@H](CC[C@@H](O)C[C@@H](O)CC(=O)O)[C@H]21 [Pravastatin (sodium salt)]")
-2.28
>>> reportedmeasurement("C[C@@H]1C/C=C/C=C/C=C/C=C/[C@H](O[C@@H]2O[C@H](C)[C@@H](O)[C@H](N)[C@@H]2O)C[C@@H]2O[C@](O)(C[C@@H](O)C[C@H]3O[C@@H]3/C=C/C(=O)O1)C[C@H](O)[C@H]2C(=O)O")
3.82
>>> reportedmeasurement("CC(=O)O[C@H]1CC[C@@]2(C)C(=CC[C@@H]3[C@@H]2CC[C@]2(C)C(c4cccnc4)=CC[C@@H]32)C1 [Abiraterone Acetate]")
-1.15

====

The entries below come with measured difference in startle response values attached.
Test system: Danio rerio larvae (5 dpf)
testDetails: difference in startle response vs DMSO (percentage points); higher = stronger startle than DMSO
conditionInfo: 10 µM; exposure time 6 h
Where a name gives a salt, the structure may show the parent alone.
assayMetric: difference in startle response

>>> reportedmeasurement("NC(=O)Cc1cccc(C(=O)c2ccccc2)c1N")
1.72
>>> reportedmeasurement("COc1cc(NC(C)CCCN)c2ncccc2c1 (configuration not stated) [Primaquine (phosphate)]")
-5.2
>>> reportedmeasurement("CC(=O)N[C@H]1[C@H]([C@H](O)[C@H](O)CO)OC(C(=O)O)=C[C@@H]1NC(=N)N")
-2.53
>>> reportedmeasurement("CC1=C(/C=C/C(C)=C/C=C/C(C)=C/C(=O)O)C(C)(C)CCC1 [all-trans Retinoic Acid]")
-8.47
>>> reportedmeasurement("C[N+]1(C)CCC(OC(=O)C(O)(c2ccccc2)C2CCCC2)C1 (configuration not stated) [Glycopyrrolate]")
-8.53
>>> reportedmeasurement("CNC[C@H](O)c1ccc(O)c(O)c1 (racemic) [(±)-Epinephrine (hydrochloride)]")
-6
>>> reportedmeasurement("Cc1ccc(Nc2nccc(N(C)c3ccc4c(C)n(C)nc4c3)n2)cc1S(N)(=O)=O")
-4.32
>>> reportedmeasurement("CC(=O)OCC(=O)[C@@]1(O)CC[C@H]2[C@@H]3CCC4=CC(=O)CC[C@]4(C)[C@@]3(F)[C@@H](O)C[C@@]21C [Fludrocortisone Acetate]")
4.97
>>> reportedmeasurement("Cc1ccc(S(=O)(=O)NC(=O)NN2CCCCCC2)cc1 [Tolazamide]")
21.4
>>> reportedmeasurement("O=C(O)c1cc(-c2ccc(F)cc2F)ccc1O")
5.89
>>> reportedmeasurement("Cc1ccc(C(=O)Nc2ccc(CN3CCN(C)CC3)c(C(F)(F)F)c2)cc1C#Cc1cnc2cccnn12")
-6.04
>>> reportedmeasurement("C[C@H]1COc2c(N3CCN(C)CC3)c(F)cc3c(=O)c(C(=O)O)cn1c23")
1.07
>>> reportedmeasurement("CN(C)CCC=C1c2ccccc2CCc2ccccc21 [Amitriptyline (hydrochloride)]")
5.98
>>> reportedmeasurement("CC(C)C[C@H](NC(=O)[C@H](Cc1ccccc1)NC(=O)c1cnccn1)B(O)O")
2.81
>>> reportedmeasurement("COc1ccc(S(=O)(=O)Nc2ccccc2CN(C)C/C=C/c2ccc(Cl)cc2)cc1 [KN-92 (hydrochloride)]")
-0.787
>>> reportedmeasurement("O=C(CCCN1CCC(O)(c2ccc(Cl)cc2)CC1)c1ccc(F)cc1")
-2.56
>>> reportedmeasurement("CC(=O)NO [Acetohydroxamic Acid]")
9
